Molecular target: Hyaluronan-binding protein 2 (Homo sapiens)
Sequence (Q14520 24-313 limits assumed): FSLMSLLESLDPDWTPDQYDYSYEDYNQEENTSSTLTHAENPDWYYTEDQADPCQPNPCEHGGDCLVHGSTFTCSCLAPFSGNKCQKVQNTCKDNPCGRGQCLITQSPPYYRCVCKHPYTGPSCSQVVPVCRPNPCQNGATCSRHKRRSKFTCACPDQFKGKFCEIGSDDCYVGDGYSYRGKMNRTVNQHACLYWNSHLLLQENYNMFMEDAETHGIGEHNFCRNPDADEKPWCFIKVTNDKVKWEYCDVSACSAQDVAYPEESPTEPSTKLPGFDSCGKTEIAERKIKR
Sequence (Q14520 314-560 limits assumed): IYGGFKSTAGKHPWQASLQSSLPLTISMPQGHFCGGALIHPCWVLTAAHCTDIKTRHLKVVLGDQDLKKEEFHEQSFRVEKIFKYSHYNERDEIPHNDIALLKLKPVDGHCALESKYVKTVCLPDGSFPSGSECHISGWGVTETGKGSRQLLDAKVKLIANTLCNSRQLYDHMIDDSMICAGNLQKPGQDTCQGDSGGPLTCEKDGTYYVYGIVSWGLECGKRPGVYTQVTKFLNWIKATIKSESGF
Test: Inhibition of spermidine-induced human pro-PHBP autoactivation
measurement_label: IC50 (µM)

In [3]: df
Out[3]:
                               smiles_input                              assay_system  measurement_label  value_unit  measured_result
0  O=C1C(O)=c2c(c3ccc(=O)c4c(O)ccc2c4-3)-c2cccc(O)c21  Hyaluronan-binding protein 2 (Homo sapiens)               IC50          µM               14

----------
Test: Inhibition of tyrosine kinase (unknown origin)
Set-up: species or system Homo sapiens
pIC50: −log10 of the molar value.
Recorded pIC50 by entry
measurement_label: pIC50

In [3]: df
Out[3]:
                                   molecule  qualifying_sign  measured_result
0  COC1C(=O)c2c(O)cccc2C2=C3CCC(=O)c4c(O)ccc(c43)C21 (centres undefined)                =             7.35
1  COC1C(O)c2c(O)cccc2C2=C3CCC(=O)c4c(O)ccc(c43)C21 (centres undefined)                <             5.30
2  CO[C@@H]1[C@H](O)c2c(O)cccc2C2=C3CCC(=O)c4c(O)ccc(c43)[C@H]21                =             7.22
3  CO[C@@H]1[C@H](OC)c2c(O)cccc2C2=C3CCC(=O)c4c(O)ccc(c43)[C@H]21                =             6.12
